assay: yeast display, Sf9 membrane polyspecificity reagent, FACS + sequencing; frameworks hold sequencing errors
ENDPOINT_NAME: polyreactivity (PSR sort gate)

[[record]]
chain = "QVQLVESGGGLVQAGGSLRLSCAASGFTIAYYAMGWYRQAPGKERELVAAITTSGSTYYADSVKGRFTISRDNAQNTVYLQMNSLKPEDTAVYYCAVSIWGWFASGFDYWGQGTQVTVSS"
endpoint_name = "polyreactivity (PSR sort gate)"
measurement = "high polyreactivity"

[[record]]
chain = "QVQLVESGGGLVQAGGSLRLSCAASGRIFYGYTMGWYRQAPGKERELVASITIRGSRTYYADSVKGRFTISRDNAKNTVYLQMNSLKPEDTAVYSCAADFVPARTVHRYDYWGQGTQVTVSS"
endpoint_name = "polyreactivity (PSR sort gate)"
measurement = "low polyreactivity"

[[record]]
chain = "QVQIVESGGGLVQAGGSLRLSCAASGRILKYYAMGWYRPAPGKEREFVASIRYSGGSTYADSVKGRFTISRDNAKNTVYLQMNSLKPEDTAGYYCNAQLSWTKFAYRGMDYGGQGTQVTVSS"
endpoint_name = "polyreactivity (PSR sort gate)"
measurement = "high polyreactivity"

[[record]]
chain = "QVQLVESVGGLVQAGGSLRLSCAASGSTFALNAMGWYRQAPGKERELVAAISYSGGSTYYADSVKGRFTISRDNAKNTVYLQINSLKPDDTAVYYCNAEVYFSGWVLYYYWGQGTQVTVSS"
endpoint_name = "polyreactivity (PSR sort gate)"
measurement = "high polyreactivity"

[[record]]
chain = "EEELVESGGGLVQAGGSLRLSCAASGRIFGPYAMGWYRQAPGKEREFVAAISGGGGNTYYADSVKGRFTISRDNAKNTVNLQMNSLKPEDTAVYYCAAQHVPRWWWYAPVKYDYWGQGTQVTVSS"
endpoint_name = "polyreactivity (PSR sort gate)"
measurement = "low polyreactivity"

[[record]]
chain = "QVQLVESGGGLVQAGGSLRLSCAASGSTFVYYAMGWYRQAPGKERELVAAISYSGGRTYYADSVKGRFTISRDNAKNTVYLQMNSLKQEDTAVYYCAAAYVKFYGYSAEYDYWGQGTQVTVSS"
endpoint_name = "polyreactivity (PSR sort gate)"
measurement = "low polyreactivity"

[[record]]
chain = "QVQQVESGGGLVQAGGSLRLSCAATGIIFNDYHMGWYRQAPGKERELVAAINYSGGSTYYADSVKGRFTISRDNAKNTVYLQMNSLKPEDTAVYYCAADNAVWEYDYWGQGTQVTVSS"
endpoint_name = "polyreactivity (PSR sort gate)"
measurement = "low polyreactivity"

[[record]]
chain = "QVQLVESGGGLVQAGGSLRLSCAASGRTFRVYAMGWYRQAPGKEREFVAAISYSGGRTYYADSVKGRFTISRDNAKNTVYLQMKSLKPEDTAVYYCAKRVPYGRGVTGYYWGQGTQVTVSS"
endpoint_name = "polyreactivity (PSR sort gate)"
measurement = "high polyreactivity"

[[record]]
chain = "QVQLVESGGGLVQAGGSLRLSCAASGYTFVDNAMGWYRQAPGKERELVAAINWDGASTYADSVKGRFTISRDNAKNTVYLQMNSLKPEDTAVYYCTASGKDIFNYVYQGYDYWGQGTQVTVSS"
endpoint_name = "polyreactivity (PSR sort gate)"
measurement = "low polyreactivity"

[[record]]
chain = "QVQLVESGGGLVQAGGSLRLSCAASGRIFNPNAMGWYRQAHGKESELVAAISGSGGSTYYADSVKGRFTISRDNAKNTVNLQMNSLKPEDTAVYYCNKLLSQRRYHSEMDYWGQGTQVTVSS"
endpoint_name = "polyreactivity (PSR sort gate)"
measurement = "high polyreactivity"

[[record]]
chain = "QVQLVESGGGLVQAGGSLRLSCAASGSTFYRNAMGWYRQAPGKEREFVADITLGGGSTYYADSVKGRFTISRDNAKNTVYLQMNSRKPEDTAVYYCAVDYWQLNYDYWGQGTQVTVSS"
endpoint_name = "polyreactivity (PSR sort gate)"
measurement = "low polyreactivity"

